test: in vivo; settings: NIH-III, mouse, in vivo, ip, 186 mg/kg, Elimination half-life, i.p. SN30000 186 mg/kg, all tissues except tumors
Reported half-life values for the following compounds.

>  <COMPOUND_STRUCTURE>
[O-][n+]1nc(CCCN2CCOCC2)nc2cc3c(cc21)CCC3

>  <half-life>
~30 min

$$$$
>  <COMPOUND_STRUCTURE>
[O-][n+]1nc(CCCN2CCOCC2)[n+]([O-])c2cc3c(cc21)CCC3

>  <half-life>
~30 min

$$$$

----------
assay: in vivo; details: NIH-III nude, mouse, in vivo, iv, 18.6 mg/kg
QUANTITY_KIND: clearance (mL/min/kg)

>  <COMPOUND_STRUCTURE>
[O-][n+]1nc(CCCN2CCOCC2)[n+]([O-])c2cc3c(cc21)CCC3

>  <QUANTITY_KIND>
clearance

>  <READOUT_UNITS>
mL/min/kg

>  <VAL>
116

$$$$
